B1: GMCL1 (parent)
chain: FCYCAGSHKRKRSSGSFCYCHPDS

variants of: B1; assay: protein stability index of a GFP-peptide fusion (GPS, HEK-293T) (PSI 1-6); higher = more stable; settings: c terminus: a fixed tail appended;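 also: lentivirally expressed fusions sorted by FACS into six bins by GFP to DsRed ratio, PSI derived from sequencing read proportions per bin multiplied by bin number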
reported.endpoint: protein stability index
Response field accepts a number only; no unit should be typed.

Consider the reported protein stability index for these variants:
variant_code=K11G experimental_value=1.97
variant_code=D23L experimental_value=1.98
variant_code=S24V experimental_value=2.12

# next variant below
Lookup: What does the record list as protein stability index for `D23A` ?
Found: 1.35
